- system name: Fruit fly DNA polymerase α (Drosophila melanogaster)
- Sequence (P26019 1-1488): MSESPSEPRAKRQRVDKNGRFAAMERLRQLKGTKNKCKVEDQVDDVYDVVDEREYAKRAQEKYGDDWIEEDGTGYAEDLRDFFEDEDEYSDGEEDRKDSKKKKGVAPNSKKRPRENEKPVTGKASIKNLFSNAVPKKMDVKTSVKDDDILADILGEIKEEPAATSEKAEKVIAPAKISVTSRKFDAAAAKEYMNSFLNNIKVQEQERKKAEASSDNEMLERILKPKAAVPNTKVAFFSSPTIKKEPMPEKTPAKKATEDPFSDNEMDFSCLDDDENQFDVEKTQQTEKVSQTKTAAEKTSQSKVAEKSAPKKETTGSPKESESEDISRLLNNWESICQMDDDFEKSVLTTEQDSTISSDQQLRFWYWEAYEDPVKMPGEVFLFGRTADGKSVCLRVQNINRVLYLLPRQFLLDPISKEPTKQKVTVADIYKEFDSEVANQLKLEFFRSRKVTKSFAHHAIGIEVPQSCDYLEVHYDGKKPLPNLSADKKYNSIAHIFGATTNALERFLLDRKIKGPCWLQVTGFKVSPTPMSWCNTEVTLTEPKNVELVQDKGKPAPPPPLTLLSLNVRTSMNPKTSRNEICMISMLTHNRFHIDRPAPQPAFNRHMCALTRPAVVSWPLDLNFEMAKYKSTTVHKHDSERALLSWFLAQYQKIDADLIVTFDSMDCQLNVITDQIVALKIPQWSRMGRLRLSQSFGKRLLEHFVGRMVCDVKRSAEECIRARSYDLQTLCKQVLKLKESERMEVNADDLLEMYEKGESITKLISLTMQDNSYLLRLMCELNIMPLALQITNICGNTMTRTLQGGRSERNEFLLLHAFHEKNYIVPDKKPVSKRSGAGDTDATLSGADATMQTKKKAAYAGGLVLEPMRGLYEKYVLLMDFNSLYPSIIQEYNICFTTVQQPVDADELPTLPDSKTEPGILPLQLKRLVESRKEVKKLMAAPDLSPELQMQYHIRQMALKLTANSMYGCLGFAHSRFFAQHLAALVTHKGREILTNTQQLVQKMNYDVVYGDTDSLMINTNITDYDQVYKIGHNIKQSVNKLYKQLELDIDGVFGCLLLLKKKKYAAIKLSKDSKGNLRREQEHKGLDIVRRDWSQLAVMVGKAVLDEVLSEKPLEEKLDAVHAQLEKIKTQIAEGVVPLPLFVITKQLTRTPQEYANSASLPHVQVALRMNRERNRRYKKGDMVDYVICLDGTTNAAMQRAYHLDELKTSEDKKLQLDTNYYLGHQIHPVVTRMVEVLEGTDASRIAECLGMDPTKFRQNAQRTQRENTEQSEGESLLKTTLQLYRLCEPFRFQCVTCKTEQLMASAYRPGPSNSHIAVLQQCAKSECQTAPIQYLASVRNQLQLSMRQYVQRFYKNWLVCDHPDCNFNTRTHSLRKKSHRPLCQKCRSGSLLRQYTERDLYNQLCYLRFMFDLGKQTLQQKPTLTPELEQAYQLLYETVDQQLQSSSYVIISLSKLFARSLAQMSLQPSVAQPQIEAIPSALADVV
property label: IC50 (µM)

>  <sample smiles>
CC(C)=CCC/C(C)=C/CC1=C(C)C(=O)c2ccccc2C1=O

>  <property label>
IC50

>  <value measured>
34

$$$$

---

- system name: Human DNA polymerase κ (Homo sapiens)
- Sequence (Q9UBT6 1-560 limits assumed): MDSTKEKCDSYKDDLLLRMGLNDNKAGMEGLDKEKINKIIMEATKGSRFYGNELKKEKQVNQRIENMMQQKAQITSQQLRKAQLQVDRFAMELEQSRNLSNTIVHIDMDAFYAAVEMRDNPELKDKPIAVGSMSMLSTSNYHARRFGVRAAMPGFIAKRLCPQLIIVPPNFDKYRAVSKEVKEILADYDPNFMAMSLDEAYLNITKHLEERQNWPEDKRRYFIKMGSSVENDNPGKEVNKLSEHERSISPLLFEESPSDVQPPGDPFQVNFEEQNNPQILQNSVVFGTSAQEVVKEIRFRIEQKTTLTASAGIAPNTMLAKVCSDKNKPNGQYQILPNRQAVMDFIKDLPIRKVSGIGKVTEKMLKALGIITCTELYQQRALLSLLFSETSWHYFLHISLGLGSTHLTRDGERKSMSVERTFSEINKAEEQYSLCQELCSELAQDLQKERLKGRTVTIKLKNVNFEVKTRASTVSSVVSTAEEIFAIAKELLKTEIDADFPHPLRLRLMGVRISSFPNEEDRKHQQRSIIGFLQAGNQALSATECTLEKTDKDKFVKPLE
property label: IC50 (µM)

>  <sample smiles>
CC(C)=CCC/C(C)=C/CC1=C(C)C(=O)c2ccccc2C1=O

>  <system name>
Human DNA polymerase κ (Homo sapiens)

>  <value measured>
35.3

$$$$
